A collection of molecules and their measured melting point

| molecule | melting point |
| --- | --- |
| CC(C)c1ccc(C(C)(C)C)c(O)c1C(=O)Nc1ccc(S(=O)(=O)C(F)(F)F)cc1Cl [Example 54] | 116 to 116.5 °C |
| CCc1c(C(C)(C)C)cc(C(C)(C)C)c(O)c1C(=O)Nc1ccc(S(=O)(=O)C(F)(F)F)cc1Cl [Example 47] | 157 to 158 °C |
| COc1cc(C(C)(C)C)c(O)c(C(=O)Nc2ccc(S(=O)(=O)C(F)(F)F)cc2Cl)c1C [Example 93] | 121 to 122 °C |
| O=C(Nc1ccc(SC(F)(F)F)cc1)c1cc(Cl)c2ccccc2c1O [Example 23] | 172 to 175 °C |
| CCc1ccc(C(C)(C)C)c(O)c1C(=O)Nc1ccc(S(=O)(=O)C(F)(F)F)cc1Cl [Example 46] | 126 to 127 °C |
| O=C(Nc1ccc(SC(F)(F)F)c(Cl)c1)c1cc(Cl)c2ccccc2c1O [Example 27] | 148 to 149 °C |
| CC(C)(C)c1cc2c(c(C(=O)Nc3ccc(S(=O)(=O)C(F)(F)F)cc3Cl)c1O)CCC2 [Example 48] | 172 to 173 °C |
| Cc1c([S+](C)[O-])cc(C(C)(C)C)c(O)c1C(=O)Nc1ccc(S(=O)(=O)C(F)(F)F)cc1Cl (stereo not shown) [Example 51] | 218 to 219 °C (dec.) |
| COc1cc(C(C)(C)C)c(O)c(C(=O)Nc2ccc(S(=O)(=O)C(F)(F)F)cc2Cl)c1O [Example 97] | 170 to 171 °C |
| COc1cc(C(=O)Nc2ccc(S(=O)(=O)C(F)(F)F)cc2Cl)c(O)c(C(C)(C)C)c1 [Example 53] | 126 to 127 °C |
| CC(C)(C)c1cc2c(c(C(=O)Nc3ccc(S(=O)(=O)C(F)(F)F)cc3Cl)c1O)CCCC2 [Example 50] | 151 °C |
| CC(C)(C)c1cc2c(c(C(=O)Nc3ccc(S(=O)(=O)C(F)(F)F)cc3Cl)c1O)CCO2 [Example 94] | 201 to 202 °C |
| Cc1cc(C(=O)Nc2ccc(S(=O)(=O)C(F)(F)F)cc2Cl)c(O)c(C23CC4CC(CC(C4)C2)C3)c1 [Example 24] | 203 to 204 °C |
| O=C(Nc1cccc(S(=O)(=O)C(F)(F)F)c1)c1ccc2ccccc2c1O [Example 16] | 194 to 195 °C |
| O=C(Nc1cccc(S(=O)(=O)C(F)(F)F)c1)c1cc2ccccc2cc1O [Example 19] | 212 to 213 °C |
| O=C(Nc1ccc(SC(F)(F)F)cc1)c1ccc2c(c1O)CCCC2 [Example 21] | 167 °C |

====

Below, each entry is listed alongside its reported melting point.

| molecule | melting point |
| --- | --- |
| O=C(Nc1cccc(S(=O)(=O)C(F)(F)F)c1)c1c(O)ccc2ccccc12 | 179 to 180 °C |
| Cc1cc(C(=O)Nc2ccc(S(=O)(=O)C(F)(F)F)cc2Cl)c(O)c(C(C)(C)C)c1 | 209 to 212 °C |
| O=C(Nc1cccc(SC(F)(F)F)c1)c1ccc2ccccc2c1O | 154 °C |
| O=C(Nc1ccc(S(=O)(=O)C(F)(F)F)cc1Cl)c1cc([S+]([O-])c2ccc(F)cc2)c2ccccc2c1O (stereo not shown) | 198 to 199.5 °C |
| O=C(Nc1ccc(S(=O)(=O)C(F)(F)F)cc1Cl)c1cc(Sc2ccc(F)cc2)c2ccccc2c1O | 195 to 198 °C |
| O=C(Nc1ccc(SC(F)(F)F)cc1)c1cc(S(=O)(=O)c2ccccc2)c2ccccc2c1O | 271 to 272 °C |
| Cc1c(O)cc(C(C)(C)C)c(O)c1C(=O)Nc1ccc(S(=O)(=O)C(F)(F)F)cc1Cl | 163 to 166 °C |
| COc1c(O)cc(C(C)(C)C)c(O)c1C(=O)Nc1ccc(S(=O)(=O)C(F)(F)F)cc1Cl | 171 to 175 °C |
| CC(C)(C)c1cc(C(C)(C)C)c(O)c(C(=O)Nc2ccc(S(=O)(=O)C(F)(F)F)cc2Cl)c1O | 149 to 150 °C |
| O=C(Nc1ccc(S(=O)(=O)C(F)(F)F)cc1Cl)c1cc(-c2ccc(F)cc2F)cc(C23CC4CC(CC(C4)C2)C3)c1O | 177 to 178 °C |
| CC1(c2cc(-c3ccc(F)cc3F)cc(C(=O)Nc3ccc(S(=O)(=O)C(F)(F)F)cc3Cl)c2O)CCCCC1 | 114 to 115 °C |
| COc1ccc(C(C)(C)C)c(O)c1C(=O)Nc1ccc(S(=O)(=O)C(F)(F)F)cc1Cl | 198 to 199 °C |
| O=C(Nc1ccc(S(=O)(=O)C(F)(F)F)cc1Cl)c1c(O)c(C23CC4CC(CC(C4)C2)C3)cc2c1CCC2 | 218 to 219 °C |
